Tested on: HL-60 cells
assay.info: Copper determination in chelator treated cells (atomic absorption)
Format: cell-based, human
measurement.parameters: 100 μM chelator
# thresholds on Average Intracellular ppb Cu define classes: lo (below 20 ppb), med (20 ppb to below 30 ppb), hi (30 ppb or more)

- molecule: "NCCNCCNCCN [TETA, triethylene-tetramine]"
  qualitative.label: "med"
- molecule: "NCCCNCCCNCCCN"
  qualitative.label: "med"
- molecule: "C1CNCCNCCN1.Cl.Cl.Cl [1,4,7-Triazacyclononane trihydrochloride]"
  qualitative.label: "lo"
- molecule: "O=C1CC(=O)NCCNCCCNCCN1"
  qualitative.label: "med"
- molecule: "C1CNCCCNCCNCCCNC1 [1,4,8,12-tetraaza cyclopentadecane]"
  qualitative.label: "lo"
- molecule: "C1COCCNCCOCCN1 [1,7-Dioxa-4,10-diazacyclododecane]"
  qualitative.label: "hi"
- molecule: "C1CNCCOCCNCCN1 [1-Oxa-4,7,10-triazacyclododecane]"
  qualitative.label: "med"
- molecule: "NCCNCCNCCNCCN [TEPA, tetraethylenepentamine]"
  qualitative.label: "med"
- molecule: "NCCCN(CCN)CCN"
  qualitative.label: "lo"
- molecule: "C1CNCCNCCNCCN1 [1,4,7,10-Tetraaza cyclododecane]"
  qualitative.label: "hi"

###

Tested on: HL-60 cells
assay.info: Copper determination in chelator treated cells (atomic absorption)
Type: cell-based, human
measurement.parameters: 500 μM chelator
observable: Average Intracellular ppb Cu

- compound: "C1CNCCOCCNCCN1 [1-Oxa-4,7,10-triazacyclododecane]"
  system.under.test: "HL-60 cells"
  result: "17.6 ppb"
- compound: "C1CNCCCNCCNCCCNC1 [1,4,8,12-tetraaza cyclopentadecane]"
  system.under.test: "HL-60 cells"
  result: "9.6 ppb"
- compound: "NCCNCCNCCNCCN [TEPA, tetraethylenepentamine]"
  system.under.test: "HL-60 cells"
  result: "17.1 ppb"
- compound: "NCCNCCNCCN [TETA, triethylene-tetramine]"
  system.under.test: "HL-60 cells"
  result: "16.8 ppb"
- compound: "C1COCCNCCOCCN1 [1,7-Dioxa-4,10-diazacyclododecane]"
  system.under.test: "HL-60 cells"
  result: "35.0 ppb"
- compound: "NCCCNCCCNCCCN"
  system.under.test: "HL-60 cells"
  result: "27.9 ppb"
- compound: "O=C1CC(=O)NCCNCCCNCCN1"
  system.under.test: "HL-60 cells"
  result: "28.3 ppb"
- compound: "C1CNCCNCCNCCN1 [1,4,7,10-Tetraaza cyclododecane]"
  system.under.test: "HL-60 cells"
  result: "Toxic"

###

Attribute: Average Intracellular ppb Cu
Tested on: HL-60 cells
assay.info: Copper determination in chelator treated cells (atomic absorption)
Assay type: cell-based, human
measurement.parameters: 20 μM chelator

- compound: "NCCCN(CCN)CCN"
  Average Intracellular ppb Cu: "10.8 ppb"
- compound: "C1CNCCCNCCNCCCNC1 [1,4,8,12-tetraaza cyclopentadecane]"
  Average Intracellular ppb Cu: "13.4 ppb"
- compound: "NCCNCCNCCN [TETA, triethylene-tetramine]"
  Average Intracellular ppb Cu: "27.7 ppb"
- compound: "NCCNCCNCCNCCN [TEPA, tetraethylenepentamine]"
  Average Intracellular ppb Cu: "31.5 ppb"
